Test system: Artemia franciscana Kellog nauplii
experiment_description: Toxicity on the Artemia franciscana Kellog crustacean species (lethality of nauplii)
Format: in vivo
conditions_used: tested concentrations 6.2–100 μg/mL (solubility limit), 24 h
Description: The oocysts (Great Salt Lake, USA) provided by S.K. Trading were grown on artificial seawater medium (Coral Marine, Grotech), dissolved in distilled water with a few minutes of sonication, at 30 g/L concentration. The test was carried out in a 24-well plate, using three replicates. […] All nauplii, dead or alive, were counted and recorded within 24 h of being placed in contact with the tested suspensions. […]

| molecule | toxicity (in words) |
| --- | --- |
| Cc1cccc(NC(=O)ON=C2c3ccccc3-c3ccccc32)c1 [Compound 1b] | not toxic |
| O=C(Nc1cccc(Cl)c1)ON=C1c2ccccc2-c2ccccc21 [Compound 1c] | not toxic |
| O=C(Nc1ccccc1)ON=C1c2ccccc2-c2ccccc21 [Compound 1a, 9-(phenylcarbamoyloxymino)fluoren] | not toxic |

* * *

experiment_description: In vitro cytotoxicity assay, IncuCyte S3 live-cell analysis
Format: cell-based
conditions_used: human, MG63 cells (osteosarcoma); MG63, phase confluence (%), 72-h period
property_measured: IC50 at 72 h (µg/mL)
# unit: µg/mL | format: bare number

Q: // IC50 at 72 h lookup, key: O=C(Nc1ccc(Cl)c(Cl)c1)ON=C1c2ccccc2-c2ccccc21 [Compound 1d]
Ans: 26.3

Q: What about this molecule? Cc1cccc(NC(=O)ON=C2c3ccccc3-c3ccccc32)c1 [Compound 1b]
Ans: 22

Q: What about this molecule? O=C(Nc1ccccc1)ON=C1c2ccccc2-c2ccccc21 [Compound 1a, 9-(phenylcarbamoyloxymino)fluoren]
Ans: 31.5

Q: What about this molecule? O=C(Nc1cccc(Cl)c1)ON=C1c2ccccc2-c2ccccc21 [Compound 1c]
Ans: 22.8

* * *

Record form. Attribute: IC50 at 72 h. Fill in for each entry.
experiment_description: In vitro cytotoxicity assay, IncuCyte S3 live-cell analysis
Format: cell-based
conditions_used: human, HT29 cells (colorectal adenocarcinoma); HT29, phase confluence (%), 72-h period
# unit: µg/mL | format: bare number

Q: // IC50 at 72 h lookup, key: Cc1cccc(NC(=O)ON=C2c3ccccc3-c3ccccc32)c1 [Compound 1b]
Ans: 6.33

Q: What about this molecule? O=C(Nc1ccc(Cl)c(Cl)c1)ON=C1c2ccccc2-c2ccccc21 [Compound 1d]
Ans: 8.17

Q: What about this molecule? O=C(Nc1ccccc1)ON=C1c2ccccc2-c2ccccc21 [Compound 1a, 9-(phenylcarbamoyloxymino)fluoren]
Ans: 11

Q: What about this molecule? O=C(Nc1cccc(Cl)c1)ON=C1c2ccccc2-c2ccccc21 [Compound 1c]
Ans: 10.8

* * *

System: E. coli ATCC 25922
experiment_description: Anti-biofilm activity assay, purple violet microtiter method
Type: cell-based, Escherichia coli
conditions_used: E. coli ATCC 25922 biofilm
property_measured: minimum biofilm inhibitory concentration (MBIC) (mg/mL)
# unit: mg/mL | format: bare number

Q: // minimum biofilm inhibitory concentration (MBIC) lookup, key: Cc1cccc(NC(=O)ON=C2c3ccccc3-c3ccccc32)c1 [Compound 1b]
Ans: 0.078

Q: What about this compound? O=C(Nc1cccc(Cl)c1)ON=C1c2ccccc2-c2ccccc21 [Compound 1c]
Ans: 1.25

Q: What about this compound? O=C(Nc1ccccc1)ON=C1c2ccccc2-c2ccccc21 [Compound 1a, 9-(phenylcarbamoyloxymino)fluoren]
Ans: 0.625

Q: What about this compound? O=C(Nc1ccc(Cl)c(Cl)c1)ON=C1c2ccccc2-c2ccccc21 [Compound 1d]
Ans: 0.625

* * *

Test system: P. aeruginosa ATCC 27853
experiment_description: Anti-biofilm activity assay, purple violet microtiter method
Type: cell-based, Pseudomonas aeruginosa
conditions_used: P. aeruginosa ATCC 27853 biofilm
property_measured: minimum biofilm inhibitory concentration (MBIC) (mg/mL)
# unit: mg/mL | format: bare number

Q: // minimum biofilm inhibitory concentration (MBIC) lookup, key: Cc1cccc(NC(=O)ON=C2c3ccccc3-c3ccccc32)c1 [Compound 1b]
Ans: 0.156

Q: What about this compound? O=C(Nc1ccc(Cl)c(Cl)c1)ON=C1c2ccccc2-c2ccccc21 [Compound 1d]
Ans: 1.25

Q: What about this compound? O=C(Nc1ccccc1)ON=C1c2ccccc2-c2ccccc21 [Compound 1a, 9-(phenylcarbamoyloxymino)fluoren]
Ans: 0.009

Q: What about this compound? O=C(Nc1cccc(Cl)c1)ON=C1c2ccccc2-c2ccccc21 [Compound 1c]
Ans: 1.25
